# assay_text: Luminescence Cell-Based Dose Confirmation HTS to Identify Inhibitors of Platelet Dense Granule Release. [Related pubchem assays: 1663 (Primary HTS), 1678 (Summary of Project)]
# Type: functional
Activity calls are given as the source filed them.
Recorded EC50, one value per entry.

molecule: Cc1cnc(NC(=O)c2ccccn2)s1
EC50: 18 µM (active)
--
molecule: COc1cc(O)ccc1C=O
EC50: > 112 µM (not active)
--
molecule: COc1ccc(N2CCN(c3nc4c(c(=O)n(C)c(=O)n4C)n3Cc3ccccc3)CC2)cc1
EC50: > 112 µM (not active)
--
molecule: O=C(CC1Oc2ccccc2NC1=O)NC1CCCC1 (stereo not given)
EC50: > 112 µM (not active)
--
molecule: CCCc1cc(=O)oc2c(C)c(OCC(=O)Nc3ccc(CN4CCOCC4)cc3)ccc12
EC50: > 112 µM (not active)

---

# Test system: H9c2;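 further: cell death induced by hydrogen peroxide oxidative stress; compound pretreatment for 60 min then peroxide exposure for 2 h; potency is for protecting the cells against peroxide damage rather than for killing them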;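 further: confirmatory concentration-response retest of ultra-high-throughput screening hits for modulation of myocardial damage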
# assay_text: cells
# Type: functional, cell-based
# test_settings: Rattus norvegicus, H9c2, Myocardium
Calls of active or inactive are those of the source.
Possible outcomes: active, inactive

input_smiles: CCn1c(SCC(=O)Nc2ccccc2N2CCCCC2)nc2c1c(=O)n(C)c(=O)n2C
label_value: inactive
--
input_smiles: CC(=O)c1ccc(C(=O)Nc2nnc(-c3ccc(Cl)cc3)o2)cc1
label_value: inactive
--
input_smiles: Cc1cc(C)c(C)c(S(=O)(=O)N2CCC(C(=O)NNC(=O)c3ccccc3O)CC2)c1C
label_value: inactive
--
input_smiles: Oc1ccc(Cl)cc1/C=N/c1ccc(Br)cc1
label_value: active
--
input_smiles: CCOC(=O)CNC(=O)CSc1nc2cc(Br)c(C)nc2[nH]1
label_value: active

---

# target_or_test_system: Protein RecA (Mycobacterium tuberculosis, UniProt P9WHJ3)
# Sequence (P9WHJ3 whole entry): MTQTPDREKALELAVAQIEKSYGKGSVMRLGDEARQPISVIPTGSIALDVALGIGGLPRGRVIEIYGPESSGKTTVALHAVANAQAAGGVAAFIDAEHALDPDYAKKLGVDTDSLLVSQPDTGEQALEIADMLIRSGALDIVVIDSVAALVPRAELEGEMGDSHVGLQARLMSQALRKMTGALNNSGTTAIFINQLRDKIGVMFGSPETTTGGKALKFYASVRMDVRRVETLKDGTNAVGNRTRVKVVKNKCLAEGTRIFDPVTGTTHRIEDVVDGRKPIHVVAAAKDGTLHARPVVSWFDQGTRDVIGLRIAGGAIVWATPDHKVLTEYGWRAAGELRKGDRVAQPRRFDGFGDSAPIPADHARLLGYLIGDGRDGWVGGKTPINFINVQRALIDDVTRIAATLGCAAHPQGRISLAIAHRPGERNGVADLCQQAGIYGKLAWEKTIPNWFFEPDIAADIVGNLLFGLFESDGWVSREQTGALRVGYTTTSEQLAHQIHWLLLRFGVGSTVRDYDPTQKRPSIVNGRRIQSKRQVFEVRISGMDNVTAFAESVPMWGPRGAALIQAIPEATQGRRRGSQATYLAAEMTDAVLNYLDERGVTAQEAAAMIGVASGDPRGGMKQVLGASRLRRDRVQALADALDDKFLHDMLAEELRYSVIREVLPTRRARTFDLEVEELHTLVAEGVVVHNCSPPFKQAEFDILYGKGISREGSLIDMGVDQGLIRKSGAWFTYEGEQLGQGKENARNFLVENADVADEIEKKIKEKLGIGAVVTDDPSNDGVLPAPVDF
# assay_text: Fluorescence Cell-Free Homogeneous Dose Retest to Identify Inhibitors of RecA-Intein Splicing Activity. [Related pubchem assays (depositor defined):AID2097, AID2223, AID489010, AID492950]
# Type: functional
The source made the active and inactive calls.
Possible outcomes: class 1 (active), class 0 (inactive)

molecule: Cc1ccc(-c2[nH]nc3c2C(c2ccsc2)C(C#N)=C(N)O3)cc1 (centres undefined)
label_value: class 1
//
molecule: CC(C)CCn1c(Sc2nc3ccccc3o2)nc2c1c(=O)[nH]c(=O)n2C
label_value: class 1
//
molecule: O=C(CCl)Nc1cccc(S(=O)(=O)N2CCCCCC2)c1
label_value: class 1
//
molecule: Cc1[nH]n(-c2ccccc2)c(=O)c1C(c1ccc(C(=O)O)cc1)c1c(C)[nH]n(-c2ccccc2)c1=O
label_value: class 1
//
molecule: Cc1cc(C)cc(CC(Cc2nc3ccccc3[nH]2)c2nc3ccccc3[nH]2)c1 (centres undefined)
label_value: class 1
//
molecule: O=C(N/N=C/c1ccc([N+](=O)[O-])o1)c1ccc(O)cc1 [NIFUROXAZIDE]
label_value: class 0
//
molecule: CCN(CC)S(=O)(=O)c1ccc(N2CCN(S(=O)(=O)c3ccccc3C#N)CC2)nc1
label_value: class 0
//
molecule: CC(=O)N(C1=C(Cl)C(=O)c2ccccc2C1=O)C1CCCCC1
label_value: class 1
//
molecule: Cc1ccc(NC2=C/C(=N\S(=O)(=O)c3cccs3)c3ccccc3C2=O)c(C)c1
label_value: class 1
//
molecule: COc1ccccc1NC(=O)CSc1nc2c(sc3ccccc32)c(=O)n1CCN(C)C
label_value: class 1
//
molecule: COC(=O)c1ccccc1NC(=S)NC(=O)c1ccc(C)cc1
label_value: class 1
//
molecule: COc1ccc(/C=N/NC(=O)c2nn(-c3ccccc3)c(=O)c3c(N)scc23)cc1
label_value: class 1
//
molecule: Cc1nc2c(=O)n(C)c(=O)n(C)c2nc1Cl
label_value: class 1
//
molecule: CCOC(=O)c1c(NC(=O)COC(=O)c2ncc(Cl)c(Cl)c2Cl)sc(C(=O)N(C)C)c1C
label_value: class 1
